# Tested on: Yersinia pseudotuberculosis
# procedureText: Effect on T3S in Yersinia pseudotuberculosis 3 pIB29 assessed as inhibition of light emission at 50 uM by luciferase reporter gene assay
readoutType: inhibition (%)
Enter your answer as a number in %; do not include the unit.

[
  {
    "smilesText": "CC(=O)Oc1c(C(=O)Nc2ccc(SC(F)(F)F)cc2)cc2cc(Br)ccc2c1Br",
    "systemTested": "Yersinia pseudotuberculosis",
    "inhibition (%)": 4
  },
  {
    "smilesText": "CC(C)(C)c1ccc(NC(=O)c2cc(I)cc(I)c2O)cc1",
    "systemTested": "Yersinia pseudotuberculosis",
    "inhibition (%)": 41
  },
  {
    "smilesText": "O=C(Nc1ccc(SC(F)(F)F)cc1)c1c(O)c(Cl)cc(Cl)c1Cl",
    "systemTested": "Yersinia pseudotuberculosis",
    "inhibition (%)": 100
  },
  {
    "smilesText": "COc1cc(Cl)c(C)cc1NC(=O)c1cc(C)ccc1OC(C)=O",
    "systemTested": "Yersinia pseudotuberculosis",
    "inhibition (%)": -2
  },
  {
    "smilesText": "CC(=O)Oc1c(Cl)cccc1C(=O)Nc1ccc(Br)cc1",
    "systemTested": "Yersinia pseudotuberculosis",
    "inhibition (%)": 78
  }
]

Okay, now this compound:
Reported inhibition (Yersinia pseudotuberculosis) for entry `CCCCCCCc1ccc(NC(=O)c2cc(I)cc(I)c2OC(C)=O)cc1` is 17

----------
# System: Yersinia pseudotuberculosis
# procedureText: Effect on T3S in Yersinia pseudotuberculosis 3 pIB29 assessed as inhibition of light emission at 5 uM by luciferase reporter gene assay
Classify as follows. Reported inhibition greater than or equal to 80%: fulfilled. Reported inhibition below: not fulfilled.

Worked set:
[
  {
    "smilesText": "O=C(Nc1ccc(Br)cc1)c1cccc(Cl)c1O",
    "label": "not fulfilled"
  },
  {
    "smilesText": "CC(=O)Oc1ccc(I)cc1C(=O)Nc1ccc(Br)cc1",
    "label": "fulfilled"
  },
  {
    "smilesText": "CC(=O)Oc1c(I)cc(I)cc1C(=O)Nc1cc(Cl)ccc1F",
    "label": "not fulfilled"
  },
  {
    "smilesText": "Cc1cc(NC(=O)c2cc(Cl)ccc2O)ccc1Cl",
    "label": "fulfilled"
  },
  {
    "smilesText": "O=C(Nc1ccc(Cl)cc1)c1cc(I)cc(I)c1O",
    "label": "fulfilled"
  }
]

Prompt line: Quick check: does `O=C(Nc1ccc(SC(F)(F)F)cc1)c1cc(I)ccc1O` have inhibition greater than or equal to 80%?
Response line: not fulfilled

Prompt line: Quick check: does `O=C(Nc1ccc(SC(F)(F)F)cc1)c1cccc(Cl)c1O` have inhibition greater than or equal to 80%?
Response line: not fulfilled

----------
# Tested on: Yersinia pseudotuberculosis
# procedureText: Effect on T3S in Yersinia pseudotuberculosis 3 pIB29 assessed as inhibition of light emission at 20 uM by luciferase reporter gene assay
readoutType: inhibition (%)
Enter your answer as a number in %; do not include the unit.

Reported inhibition for `O=C(Nc1ccccc1)c1cc(I)cc(I)c1O` was 51

Reported inhibition for `CC(=O)Oc1cc(C)ccc1C(=O)Nc1ccccc1F` was 8

Reported inhibition for `CC(=O)Oc1c(I)cc(I)cc1C(=O)Nc1ccc(C(C)(C)C)cc1` was 20

Reported inhibition for `COc1cc(Cl)c(C)cc1NC(=O)c1cccc(C(C)C)c1O` was 25

Reported inhibition for `CC(=O)Oc1c(I)cc(I)cc1C(=O)Nc1ccccc1` was 48

Reported inhibition for `CC(=O)Oc1ccc(F)cc1C(=O)Nc1ccc(C(C)(C)C)cc1` was 37

Reported inhibition for `CC(=O)Oc1ccc(Cl)cc1C(=O)Nc1ccc(Cl)c(C)c1` was 100

Source: ChEMBL document CHEMBL1138297
